I'd be grateful if you could share measured growth for these entries.
tested on: NCI/ADR-RES ovarian; assay: NCI-60 one-dose screen, 48 h (100 = growth as untreated, 0 = no growth, -100 = all killed); conditions: 10 µM unless noted
This is part of a sample that, as a whole, favours compounds with a hit. Of some 83,000 tested, about 20% had one in any assay.
Write down the numeric answer in % and omit the unit.

Which growth reading was recorded for the compound "CNC(=O)O/N=C(/C)c1ccc(Cl)cc1" ?
109

Which growth reading was recorded for the compound "N#[N+]c1nc2nc(N)[nH]c(=O)c2[nH]1" ?
101

Which growth reading was recorded for the compound "C[C@]12C[C@H](O)[C@H]3[C@@H](CCC4=CC(=O)CC[C@@]43C)[C@@H]1CC[C@@H]2O" ?
104

Which growth reading was recorded for the compound "CC1(C)N=C(N)N=C(N)N1c1ccc(OCCCCOc2ccc(S(=O)(=O)F)cc2)c(Cl)c1" ?
103

Which growth reading was recorded for the compound "OB([O][Hg][c]1ccccc1)[O][Hg][c]1ccccc1" ?
-18.2

Which growth reading was recorded for the compound "O=C(CCl)NCNC(=O)CCl" ?
103

Which growth reading was recorded for the compound "COC(=O)C[Se]C(=O)c1ccccc1OC(C)=O" ?
24.2

Which growth reading was recorded for the compound "Cn1cnnc1[S-].[Au+].c1ccc([PH+](c2ccccc2)c2ccccc2)cc1" ?
69.5

Which growth reading was recorded for the compound "Cc1cccc(N=C2c3cc([N+](=O)[O-])ccc3-c3c2cc([N+](=O)[O-])cc3[N+](=O)[O-])c1" ?
56.5

###

system: HL-60(TB) leukemia; assay: NCI-60 one-dose screen, 48 h (100 = growth as untreated, 0 = no growth, -100 = all killed); conditions: 10 µM unless noted
About 83,000 compounds went through this panel and 20% of them were active in at least one assay; those are over-represented in the sample as a whole. The source made the active and inactive calls. Rule for the calls: active = growth percent below 10; inactive = the rest.
Parameter: growth

Requested read-out growth, target or system HL-60(TB) leukemia, entry CCCCNCC(O)c1cc(-c2ccc(C(F)(F)F)cc2)nc(-c2ccc(C(F)(F)F)cc2)c1 (stereo not given)
-49.2% (active)

Requested read-out growth, target or system HL-60(TB) leukemia, entry "OCCNc1nc(Nc2ccc(Cl)c(Cl)c2)nc2ccccc12"
44.4% (inactive)

Requested read-out growth, target or system HL-60(TB) leukemia, entry "COc1ccc(S(=O)(=O)NCCNc2nccc(-c3c(-c4cccc(N)c4)nc4sccn34)n2)cc1"
116% (inactive)

Requested read-out growth, target or system HL-60(TB) leukemia, entry "COC(=O)c1ccc(-n2cc(CCCOS(=O)(=O)c3ccc(F)cc3)nn2)cc1"
99.6% (inactive)

Requested read-out growth, target or system HL-60(TB) leukemia, entry "COc1cc2nc3cc([N+](=O)[O-])ccc3c(Cl)c2cc1OC"
109% (inactive)

Requested read-out growth, target or system HL-60(TB) leukemia, entry "N#C/C(=N\Nc1ccccc1)C(=O)Nc1cc(-c2ccccc2)nn1-c1ccccc1"
35.4% (inactive)

Requested read-out growth, target or system HL-60(TB) leukemia, entry CC1CC(O)C2C3(C)CCCC2(COC3=O)C12CCC1(CCOC1=O)O2 (stereo not given)
121% (inactive)

Requested read-out growth, target or system HL-60(TB) leukemia, entry COC(=O)C(Cc1cnc[nH]1)N1CC(=O)N2[C@@H](c3ccccc3)SC[C@H]2C1=O (stereo not given in full)
90.3% (inactive)

Requested read-out growth, target or system HL-60(TB) leukemia, entry "CCCCCSc1ccc2nc(NC(=O)OCCC)sc2c1"
5.41% (active)

Requested read-out growth, target or system HL-60(TB) leukemia, entry "O=C1CCC/C=C\C[C@H]2C=C(Cl)C(=O)/C2=C/C[C@H](CCCCC(F)(F)F)OC(=O)CCC/C=C\C[C@H]2C=C(Cl)C(=O)/C2=C/C[C@H](CCCCC(F)(F)F)O1"
-16.5% [7.5 µM] (active)

Requested read-out growth, target or system HL-60(TB) leukemia, entry "Nc1c(C(=O)Nc2ccccc2)sc2nc3c(cc12)CCCC3"
15.5% (inactive)

Requested read-out growth, target or system HL-60(TB) leukemia, entry "CN1CCN(CCCN2c3ccccc3Sc3ccc(C(F)(F)F)cc32)CC1"
83.8% (inactive)

Requested read-out growth, target or system HL-60(TB) leukemia, entry Nc1cccc(-c2ccc(COc3ccc(CC4SC(=O)NC4=O)cc3)cc2)c1 (stereo not given)
43.4% (inactive)

Requested read-out growth, target or system HL-60(TB) leukemia, entry CCCCCCCCCCCCOc1ccc(C(=O)Oc2ccc(CSP3(=O)OCC4OC(n5cnc6c(N)ncnc65)C(F)C4OP(=O)(O)OCC4OC(n5ccc(=O)[nH]c5=O)C(F)C4O3)cc2)cc1 (stereo not given)
-18.4% (active)

Requested read-out growth, target or system HL-60(TB) leukemia, entry "COc1ccc(-c2cc(Cc3cccs3)c(=O)n(Cn3cncn3)n2)cc1"
107% (inactive)

###

tested on: HL-60(TB) leukemia; test: NCI-60 one-dose screen, 48 h (100 = growth as untreated, 0 = no growth, -100 = all killed); conditions: 10 µM unless noted
This is part of a sample that, as a whole, favours compounds with a hit. Of some 83,000 tested, about 20% had one in any assay.
Parameter: growth (%)
Write down the numeric answer in % and omit the unit.

Which growth reading was recorded for the compound COC(=O)C(Cc1ccccc1)NC(=O)c1ccc(NC(=O)c2[nH]c(C)c(Cl)c2Cl)c(OC(C)C)c1 (stereo not drawn) ?
99.7

Which growth reading was recorded for the compound "CCCCC[C@H]1C/C=C2/C(=O)C=C[C@@H]2C/C=C\CCCC(=O)O1" ?
4.48

Which growth reading was recorded for the compound "COc1cc(C(N)=O)cc(OC)c1OC" ?
96.6

Which growth reading was recorded for the compound CCOC(=O)C(O)C(O)C(=O)OCC (stereo not drawn) ?
102

Which growth reading was recorded for the compound "Cc1cc(N(CCNc2ccnc3cc(Cl)ccc23)Cc2ccc3c(c2)OCO3)nc(N2CCCC2)n1" ?
-61.9

Which growth reading was recorded for the compound "COc1cc2nc(Nc3cccc(Cl)c3)nc(N)c2cc1OC" ?
87.1

Which growth reading was recorded for the compound CC(O)CN(CC(C)O)c1ccc2c(c1)Cc1cc([N+](=O)[O-])ccc1-2 (stereo not drawn) ?
74.5

Which growth reading was recorded for the compound "COc1ccc2nc3cc(Cl)ccc3c(N3CCN(c4ccnc(Nc5ccc(F)cc5)n4)CC3)c2c1" ?
52.5

Which growth reading was recorded for the compound "OCc1cnccc1NCCCCOc1ccc(Oc2ccccc2)cc1" ?
22.7

Which growth reading was recorded for the compound "O=C(NNC(=O)N1c2ccccc2C=Cc2ccccc21)c1ccccc1" ?
98.8

Which growth reading was recorded for the compound "O=C(Nc1ccc(-c2ccnc(Nc3ccc(N4CCOCC4)cc3)n2)cc1)[C@@H]1CCCN1" ?
39.8

Which growth reading was recorded for the compound "COc1ccc(CNc2ccc3nc(NC(=O)CN4CCCCCC4)sc3c2)cc1" ?
47.4

Which growth reading was recorded for the compound "COc1ccc(S(=O)(=O)NCCCNc2nccc(-c3c(-c4cccc(N)c4)nc4sccn34)n2)cc1" ?
112

Which growth reading was recorded for the compound "NS(=O)(=O)N(c1cc(C(F)(F)F)cc(C(F)(F)F)c1)C1CCN(Cc2ccc(F)cc2)CC1" ?
26.3

Which growth reading was recorded for the compound "N#C/C(=C\c1cccc2cnccc12)n1nnc2cccc(F)c21" ?
1.65

Which growth reading was recorded for the compound "COc1ccc2nc(NC(=O)/C(=C/c3cc(OC)c(OC)c(OC)c3)c3ccc(OC)c(OC)c3)sc2c1" ?
94.5

Which growth reading was recorded for the compound CCOc1ccccc1-n1c(CN2CCN(C(=O)COc3ccc(CNCCCCCCN4C5CCCC4CC(OC(=O)Nc4cc(C)ccc4OC)C5)cc3)CC2)nc2ccccc2c1=O (stereo not drawn) ?
-76

Which growth reading was recorded for the compound "COc1cc(C(=O)c2c(-c3ccccc3)oc3c(OC)cccc23)cc(OC)c1O" ?
3.31

Which growth reading was recorded for the compound "CCCCCCCCCc1ccc(OCCOCCOCCOCCOCCOCCOCCOCCOCCO)cc1" ?
-40.9

Which growth reading was recorded for the compound CCCCCCCCCCCCS(=O)CC(C)O (stereo not drawn) ?
99

Which growth reading was recorded for the compound "O=C(O)COc1ccc2c(=O)c3sc4c(=O)c5ccccc5c(=O)c4c3c(=O)c2c1" ?
42.7

Which growth reading was recorded for the compound Cc1ccc(C(=O)C(Br)C(Br)c2ccccc2)cc1 (stereo not drawn) ?
45.1

Which growth reading was recorded for the compound "CC(=O)Oc1ccc(/C=N/NC(N)=S)nc1" ?
64.3

###

tested on: HL-60(TB) leukemia; experiment: NCI-60 one-dose screen, 48 h; details: 10 µM unless noted
Compounds without any hit were thinned out: in the full panel of roughly 83,000, 20% have a hit. Calls of active or inactive are those of the source. The calls were made as follows: active = growth percent below 10; inactive = the rest.
Pick one and only one: class 1 = active, class 0 = inactive

Could you check what this test reported for "COc1nc2c(cc1S(=O)(=O)c1ccccc1)CCc1c-2cnn1Cc1ccccc1" ?
class 0

Could you check what this test reported for "C=CCC1(CC)C(=O)NC(=S)NC1=O" ?
class 0

Could you check what this test reported for "COc1ccc2c(N)ncc(C#Cc3cc(C(=O)Nc4ccc(CN5CCN(C)CC5)c(C(F)(F)F)c4)cnc3C)c2c1" ?
class 0

Could you check what this test reported for C=CCN(CC=C)C(=O)[C@H](CC)[C@@H]1CC[C@@H](C)[C@@H]([C@H](C)[C@@H](O)[C@@H](C)C(=O)[C@H](CC)C2O[C@]3(C=C[C@@H](O)[C@]4(CC[C@@](C)([C@H]5CC[C@](O)(CC)[C@H](C)O5)O4)O3)[C@H](C)C[C@@H]2C)O1 (some centres undefined) ?
class 1

Could you check what this test reported for "C[N+]1=C(/C=C\C=C\c2ccccc2)C(C)(C)c2ccccc21" ?
class 1

Could you check what this test reported for "COC1=C(OC)C(=O)C=CC1=O" ?
class 0

Could you check what this test reported for "O=C(O)/C=C/c1cn(-c2ccccc2)nc1-c1ccc(F)cc1" ?
class 0

Could you check what this test reported for "COc1ccc(S(=O)(=O)NCCCNc2nccc(-c3c(-c4ccc(F)cc4)nc4sccn34)n2)cc1" ?
class 0

Could you check what this test reported for CCNC(=O)C1CCCN1C(=O)C(CCCN=C(N)N)NC(=O)C(CC(C)C)NC(=O)C(CC(C)C)NC(=O)C(Cc1ccc(O)cc1)NC(=O)C(CO)NC(=O)C(Cc1c[nH]c2ccccc12)NC(=O)C(Cc1cnc[nH]1)NC(=O)C1CCC(=O)N1 (centres undefined) ?
class 0
